- TEST_SUMMARY: Antiproliferative activity against human KBVIN cells after 3 days by sulforhodamine B assay
- Assay type: functional
- SETTINGS: 72 h
Some compounds, each annotated with its measured GI50.
Note: unit nM is implicit; provide only the numeric part.

# COMPOUND, QUANTITY_KIND, UNITS, MEASURED_VALUE
rows = [
    ("CCC1=C(O)c2c(oc(-c3cc4ccccc4o3)cc2=O)C(CC)(CC)C1=O", "GI50", "nM", 14600),
    ("CCC1=C(O)c2c(oc(-c3ccc(OC)c4ccccc34)cc2=O)C(CC)(CC)C1=O", "GI50", "nM", 1560),
    ("CCC1=C(O)c2c(oc(-c3ccc4c5c(cccc35)CC4)cc2=O)C(CC)(CC)C1=O", "GI50", "nM", 1930),
    ("CCC1=C(O)c2c(oc(-c3cccc4ccccc34)cc2=O)C(CC)(CC)C1=O", "GI50", "nM", 770),
    ("CCC1=C(O)c2c(oc(-c3cc4ccccc4s3)cc2=O)C(CC)(CC)C1=O", "GI50", "nM", 9900),
]

Pending compound:
Query block: What does the data say about its GI50? Entry: CCC1=C(O)c2c(oc(-c3cn(C)c4ccccc34)cc2=O)C(CC)(CC)C1=O
Result block: 2810

###

- TEST_SUMMARY: Antiproliferative activity against human KBVIN cells after 3 days by sulforhodamine B assay
- Assay type: functional
- SETTINGS: 72 h
Some molecules, each annotated with its measured log10(GI50).
// do not treat as linear: log10 of GI50, unit µM

# SMILES_TEXT, QUANTITY_KIND, MEASURED_VALUE
rows = [
    ("CCC1=C(O)c2c(oc(-c3cccc4ccccc34)cc2=S)C(CC)(CC)C1=S", "log10(GI50)", 0.77),
    ("CCC1=C(O)c2c(oc(-c3cc4ccccc4c4ccccc34)cc2=O)C(CC)(CC)C1=O", "log10(GI50)", 0.99),
    ("CCC1=C(O)c2c(oc(-c3cccc4ccccc34)cc2=O)C(CC)(CC)C1=S", "log10(GI50)", 0.43),
    ("CC1=C(O)c2c(oc(-c3csc4ccccc34)cc2=O)C(C)(C)C1=O", "log10(GI50)", -1.05),
    ("CCC1=C(O)c2c(oc(-c3ccccc3)cc2=O)C(CC)(CC)C1=O", "log10(GI50)", 0.03),
    ("CCC1=C(O)c2c(oc(-c3cnc4ccccc4c3)cc2=O)C(CC)(CC)C1=O", "log10(GI50)", 1.17),
    ("CCC1=C(O)c2c(oc(-c3csc4ccc(Br)cc34)cc2=O)C(CC)(CC)C1=O", "log10(GI50)", 1.03),
    ("CC1=C(O)c2c(oc(-c3cccc4ccccc34)cc2=O)C(C)(C)C1=O", "log10(GI50)", -0.24),
    ("CC1=C(O)C(C)(C)c2oc(-c3ccccc3)cc(=O)c2C1=O", "log10(GI50)", 1.13),
    ("CC1=C(O)c2c(oc(-c3ccc4c(c3)OCCO4)cc2=O)C(C)(C)C1=O", "log10(GI50)", -0.19),
]

Query block: What does the data say about its log10(GI50)? Entry: CCC1=C(O)c2c(oc(-c3c(O)ccc4sccc34)cc2=O)C(CC)(CC)C1=O
Result block: -0.11

Query block: What does the data say about its log10(GI50)? Entry: CC[C@]1(O)C[C@H]2CN(CCc3c([nH]c4ccccc34)[C@@](C(=O)OC)(c3cc4c(cc3OC)N(C=O)[C@H]3[C@@](O)(C(=O)OC)[C@H](OC(C)=O)[C@]5(CC)C=CCN6CC[C@]43[C@@H]65)C2)C1
Result block: 0.96

Query block: What does the data say about its log10(GI50)? Entry: CCC1=C(O)c2c(oc(-c3ccc4ccccc4c3)cc2=O)C(CC)(CC)C1=O
Result block: 0.06

###

- TEST_SUMMARY: Antiproliferative activity against human KBVIN cells after 3 days by sulforhodamine B assay
- Assay type: functional
- SETTINGS: 72 h
Some compounds, each annotated with its measured GI50.
Note: unit µM is implicit; provide only the numeric part.

# SMILES_TEXT, GI50 [µM]
data = [
    ("CCC1=C(O)c2c(oc(-c3cccc4ccccc34)c(Br)c2=O)C(CC)(CC)C1=O", 12),
    ("CCC1=C(OC)C(CC)(CC)c2oc(-c3cccc4ccccc34)c(Br)c(=O)c2C1=O", 9.96),
    ("CCC1=C(O)c2c(oc(-c3c(C)ccc4ccccc34)cc2=O)C(CC)(CC)C1=O", 19.9),
]

Pending compound:
Query block: What does the data say about its GI50? Entry: CCC1=C(O)c2c(oc(-c3c(OC)c(OC)cc4ccccc34)cc2=O)C(CC)(CC)C1=O
Result block: 35.7

###

- TEST_SUMMARY: Displacement of [3H]colchicine from tubulin at 5 uM for 10 mins
QUANTITY_KIND: inhibition (%)
Note: unit % is implicit; provide only the numeric part.

# SMILES_TEXT, UNITS, MEASURED_VALUE
records = [
    ("CCC1=C(O)c2c(oc(-c3ccc4c(c3)OCCO4)cc2=O)C(CC)(CC)C1=O", "%", 33),
    ("CCC1=C(O)c2c(oc(-c3cccc4ccccc34)cc2=O)C(CC)(CC)C1=O", "%", 43),
    ("CCC1=C(O)c2c(oc(-c3csc4ccccc34)cc2=O)C(CC)(CC)C1=O", "%", 78),
    ("CCC1=C(O)c2c(oc(-c3c(C)sc4ccccc34)cc2=O)C(CC)(CC)C1=O", "%", 38),
]

Query block: What does the data say about its inhibition? Entry: CCC1=C(O)c2c(oc(-c3ccc(OC)c4ccccc34)cc2=O)C(CC)(CC)C1=O
Result block: 31

Query block: What does the data say about its inhibition? Entry: CCC1=C(O)c2c(oc(-c3c(O)ccc4sccc34)cc2=O)C(CC)(CC)C1=O
Result block: 52

Query block: What does the data say about its inhibition? Entry: CC1=C(O)c2c(oc(-c3ccc4c(c3)OCCO4)cc2=O)C(C)(C)C1=O
Result block: 36

###

- System: KB
- TEST_SUMMARY: Antiproliferative activity against human KB cells at 20 ug/ml after 3 days by sulforhodamine B assay
- Assay type: functional, cell-based
Activity calls are given as the source filed them. The rule behind the calls is not given here.
QUANTITY_KIND: Activity

Below, each entry is followed by its recorded Activity result.
# COMPOUND, Activity
records = [
    ("CCC1=C(O)c2c(oc(-c3ccccc3)cc2=O)C(CC)(CC)C1=O [6,8,8-TRIETHYL DESMOSDUMOTIN B]", "inactive"),
    ("CCC1=C(O)c2c(oc(-c3c4ccccc4cc4ccccc34)cc2=O)C(CC)(CC)C1=O", "inactive"),
    ("CCC1=C(O)c2c(oc(-c3ccc4c(c3)c3ccccc3n4CC)cc2=O)C(CC)(CC)C1=O", "inactive"),
    ("CCC1=C(O)c2c(oc(-c3c(OC)c(OC)cc4ccccc34)cc2=O)C(CC)(CC)C1=O", "inactive"),
]

Query block: What does the data say about its Activity? Entry: CCC1=C(O)c2c(oc(-c3cccc4c3oc3ccccc34)cc2=O)C(CC)(CC)C1=O
Result block: inactive

Query block: What does the data say about its Activity? Entry: CCC1=C(O)c2c(oc(-c3ccc(OC)c4ccc(OC)cc34)cc2=O)C(CC)(CC)C1=O
Result block: inactive

Query block: What does the data say about its Activity? Entry: CC1=C(O)C(C)(C)c2oc(-c3ccccc3)cc(=O)c2C1=O [DESMOTUMOTIN B]
Result block: inactive

###

Some compounds, each annotated with its measured IC50.
- TEST_SUMMARY: Inhibition of tubulin assembly after 20 mins by turbidimetric assay
- SETTINGS: read-out: IC50
Note: unit nM is implicit; provide only the numeric part.

Below, each entry is followed by its recorded IC50 result.
# SMILES_TEXT, IC50 / nM
data = [
    ("CCC1=C(O)c2c(oc(-c3ccc4c(c3)OCCO4)cc2=O)C(CC)(CC)C1=O", 6500),
    ("CC1=C(O)c2c(oc(-c3ccc(C)c4ccccc34)cc2=O)C(C)(C)C1=O", 2500),
    ("CCC1=C(O)c2c(oc(-c3c(C)sc4ccccc34)cc2=O)C(CC)(CC)C1=O", 3400),
]

Query block: What does the data say about its IC50? Entry: CC1=C(O)c2c(oc(-c3ccc4c(c3)OCCO4)cc2=O)C(C)(C)C1=O
Result block: 3700

Query block: What does the data say about its IC50? Entry: CCC1=C(O)c2c(oc(-c3csc4ccccc34)cc2=O)C(CC)(CC)C1=O
Result block: 2000

Query block: What does the data say about its IC50? Entry: CC1=C(O)c2c(oc(-c3csc4ccccc34)cc2=O)C(C)(C)C1=O
Result block: 2400

Query block: What does the data say about its IC50? Entry: CCC1=C(O)c2c(oc(-c3ccc(OC)c4ccccc34)cc2=O)C(CC)(CC)C1=O
Result block: 2700

Query block: What does the data say about its IC50? Entry: CCC1=C(O)c2c(oc(-c3cccc4ccccc34)cc2=O)C(CC)(CC)C1=O
Result block: 2300

Query block: What does the data say about its IC50? Entry: CCC1=C(O)c2c(oc(-c3c(O)ccc4sccc34)cc2=O)C(CC)(CC)C1=O
Result block: 3400

Query block: What does the data say about its IC50? Entry: CCC1=C(O)c2c(oc(-c3ccc(C)c4ccccc34)cc2=O)C(CC)(CC)C1=O
Result block: 2700
